// data source = the supplement of paper PMC10567573

B1: PPFIA4 (parent)
chain: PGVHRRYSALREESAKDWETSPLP

- Variants of: B1
- Method: protein stability index of a GFP-peptide fusion (GPS, HEK-293T) (PSI 1-6); higher = more stable;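 further: lentivirally expressed fusions sorted by FACS into six bins by GFP to DsRed ratio, PSI derived from sequencing read proportions per bin multiplied by bin number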
- Condition info: c terminus: a fixed tail appended
Recorded protein stability index, one value per entry.
I'd appreciate a reply containing only the number, no unit.

[
  {
    "Sequence content": "PGVHRYYSALREESAKDWETSPLP",
    "Readout value": 3.62
  },
  {
    "Sequence content": "PGVHRRESALREESAKDWETSPLP",
    "Readout value": 5.25
  },
  {
    "Sequence content": "PGVHRRYSALREESAKDWETSPLT",
    "Readout value": 4.04
  }
]

State the recorded protein stability index for this entry: PGVHRMYSALREESAKDWETSPLP
3.82

State the recorded protein stability index for this entry: PGVHRRYSALRCESAKDWETSPLP
3.57

State the recorded protein stability index for this entry: PGVHRRYSALREESAKDWETDPLP
5.1

State the recorded protein stability index for this entry: PGVHRRYDALREESAKDWETSPLP
4.97

State the recorded protein stability index for this entry: PGVHRRYSALREESAKDYETSPLP
4.73

State the recorded protein stability index for this entry: PGVHRRYSALGEESAKDWETSPLP
3.41
